B1: KAT8 regulatory NSL complex subunit 2, residues 28 to 91; numbered along this chain, Q9H9L4 (parent)
chain: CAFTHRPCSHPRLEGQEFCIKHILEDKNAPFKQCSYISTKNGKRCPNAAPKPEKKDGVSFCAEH

- Variants of: B1
- Measurement Protocol: abundance fitness (aPCA) (normalised: wild type 0, dead -1); higher = more abundant; growth selection in yeast, the domain comes from the species named
- Test Parameters: Homo sapiens
Measured Parameter: abundance fitness

| Variant Descriptor | abundance fitness |
| --- | --- |
| K40G | -0.196 |
| F31K | -0.195 |
| P30R | -0.198 |

## Input Looking for the measured abundance fitness of T39M , can you help?
## Output -0.165

## Input Now consider G15H .
## Output -0.263

## Input Now consider I37N .
## Output -0.042

## Input Now consider Q16V .
## Output -0.38

## Input Now consider C1T .
## Output -0.89
